The origin of these recorded values is PubChem BioAssay.

Reported differential viability (reversal) values for the following molecules.
Experiment summary: reversal of MRP1-mediated doxorubicin resistance, pilot screen, H69AR cells, doxorubicin co-treatment (AID 601)
Test context: H69AR cells + 2 uM doxorubicin, CellTiter-Glo, 72 h; at 10 µM; stronger effect = higher value
Express your answer in %, writing the number without its unit.

Observe how each entry below is paired with its result.
Molecule | differential viability (reversal), %
CCNCCNC(=O)c1c(O)c2ccccc2n(CC)c1=O | 4.78
CCN1CCCC1CNC(=O)CS(=O)(=O)Cc1nc(-c2ccccc2C)oc1C (stereo not drawn) | 0.015
Cc1cc(N2CCN(c3ccccn3)CC2)n2nc(C)nc2n1 | -7.31
COc1ccc(CN2CC(C(=O)NCc3ccccn3)CC2=O)cc1 (stereo not drawn) | 9.59
O=C(c1ccc(Cl)cc1)C1CCN(C(=O)NC2CCCCC2)CC1 | 14
CCOC(=O)C1CCCN(C(=O)c2cc3c(C)nc4ccccc4c3o2)C1 (stereo not drawn) | 38.5

differential viability (reversal) in this record for CCOc1ccccc1NC(=O)CCN1CCN(S(=O)(=O)c2ccc(Br)cc2)CC1 : 11.2

// recorded differential viability (reversal) for O=C(C1CCN(S(=O)(=O)Cc2ccccc2)CC1)N1CCN(c2ncccn2)CC1 : 22.3

---

Experiment summary: growth inhibitors of H69AR lung tumor, primary screen, human, duplicate replicates (AID 580);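 further: 100% = mean luminescence of untreated wells and 0% = no signal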
Test context: H69AR lung tumor cells viability, ATP luminescence, 72 h; at 10 µM
Active and inactive are the calls of the source.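 Rule for the calls: active = viability at or under a set limit in both replicates, limit being median viability minus 3 SD (cut at about 48% in these data, passing the limit was not always enough); inconclusive = at or under the limit in just one replicate; inactive = at or above the limit in both replicates.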
A correct response names exactly one class from active, inactive

Examples from the recorded data:
Smiles text | Assigned class
O=C(c1ccco1)N1CCN(C(=O)C2CCN(S(=O)(=O)c3cccc4nsnc34)CC2)CC1 | inactive
COc1cccc(NC(=O)CSc2nnc(-c3cc(-c4ccccn4)nc4ccccc34)o2)c1 | inactive
CCN(CC)c1ccc(-c2nn3c(-c4cccnc4)nnc3s2)cc1 | active
Cc1cc(NC(=O)CN2CCC(O)(c3cccc(F)c3)CC2)no1 | inactive

Here is the next item to consider.
IN: Record lookup: outcome of this test for CC(C)(C)NC(=O)Cn1nnc(-c2cccs2)n1 ?
OUT: inactive

---

Experiment summary: reducers of endogenous Her2 protein level, primary screen, SKBR3 breast tumor cells, AlphaScreen, ATP viability (AID 461);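 further: percent of carrier control wells set as 100% viability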
Test context: 18-24 h, measured here: SKBR3 viability, ATP luminescence, at 10 µM
Measured property: viability (%)
Number only, in %; omit the unit.

Compound | Output unit | viability
CC1(C)Cc2noc(N)c2C(C)(C)N1OC(=O)c1ccco1 | % | 118
CCn1ncc(C2=NOC(C(=O)NCc3ccccc3)C2)c1C (stereo not drawn) | % | 91
CC(C)(C)c1ccc(C(=O)Nc2cnccn2)cc1 | % | 79.5
O=C(CSc1nc(-c2ccccc2)cs1)NC(=O)NCc1ccco1 | % | 86.5
COc1ccc2c(c1OC)C(=O)N(c1ccc3c(c1)CCC3)C2=O | % | 96.5

Continue with the compound presented below.
Noted for N#CC1=C(N)Oc2n[nH]c(-c3ccncc3)c2C1c1ccsc1 (stereo not drawn) : its viability reads 88

---

Experiment summary: reversal of MRP1-mediated doxorubicin resistance, pilot screen, H69AR cells, doxorubicin co-treatment (AID 601)
Test context: H69AR cells + 2 uM doxorubicin, CellTiter-Glo, 72 h; measured here: viability with 2 uM doxorubicin; at 10 µM; stronger effect = lower value
Measured property: viability
Answer with the value and then the unit.

Compound | viability
COc1ccc(CCNC(=O)C2=COCCO2)cc1 | 104%
Cc1cc(C(=O)N2CCN(c3ncccn3)CC2)cs1 | 90.8%
O=C(c1ccc(Cl)c(Cl)c1)N1CCOCC1 | 97.7%
CCn1nc(CC(=O)Nc2nnc(CC(=O)N3CCCCC3)s2)c2ccccc2c1=O | 92.7%
O=C(c1ccccc1F)N1CCN(Cc2cccc(Cl)c2)CC1 | 83.6%

response.value for O=C(c1ccc(Br)o1)N(c1ccc(Br)cc1)C1C=CS(=O)(=O)C1 (configuration not stated) (field: viability) = 81.7%

Short answer for COc1ccccc1Nc1ncnc2c1cnn2-c1cccc(C)c1 : viability was 84.5%

# compound CCCCN(c1ccccc1)S(=O)(=O)c1ccc2c(c1)CCN2C(=O)CCC(=O)O ; its viability = 90%

The recorded viability for Cn1c(CCCNC(=O)c2ccccc2)nc2ccccc21 is 81.7%

The compound identified as Cc1[nH]n2c(=O)cc(Cc3ccccc3)nc2c1C#N registered its viability at 91.6%

Reported viability ( COc1cc2c(cc1OC)C(c1cc(OC)c(OC)c(OC)c1)NCC2 (configuration not stated) ) = 91.9%

---

Experiment summary: growth inhibitors of H69AR lung tumor, primary screen, human, duplicate replicates (AID 580);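 further: 100% = mean luminescence of untreated wells and 0% = no signal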
Test context: H69AR lung tumor cells viability, ATP luminescence, 72 h; at 10 µM
The source made the active and inactive calls.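 How the source made its calls: active means viability at or under a set limit in both replicates, limit being median viability minus 3 SD (cut at about 48% in these data, passing the limit was not always enough); inconclusive means at or under the limit in just one replicate; inactive means at or above the limit in both replicates.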
Hi! Could you answer with just one of these? T = active, F = inactive

IN: Query: recorded result category for CCOC(=O)c1ccc(NC(=O)CCc2c(C)nc3ncnn3c2C)cc1 in this test
OUT: F

IN: Hi, sorry to bother you, what did the test record for Cc1ccccc1-c1nc(CS(=O)(=O)CC(=O)NCc2ccc3c(c2)OCO3)c(C)o1 ?
OUT: F

IN: What did the test return for Nc1nc(CN2CCN(Cc3ccc4c(c3)OCO4)CC2)nc(Nc2ccccc2)n1 ?
OUT: F

IN: Tell me the assay call for CCOc1cc(C(=O)Nc2ccon2)cc(OCC)c1OCC please.
OUT: F

IN: Please share the test call associated with Cc1cc(C)nc(N2CCCC(C(=O)Nc3ccc4c(c3)OCO4)C2)n1 (stereo not drawn) .
OUT: F

IN: Which outcome was entered for the compound Cc1nn(-c2ccc(F)cc2)c2sc(C(=O)O)cc12 in this test?
OUT: F

---

Experiment summary: growth inhibitors of H69AR lung tumor, primary screen, human, duplicate replicates (AID 580);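 further: 100% = mean luminescence of untreated wells and 0% = no signal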
Test context: H69AR lung tumor cells viability, ATP luminescence, 72 h; at 10 µM; stronger effect = lower value
Quick reference for viability among some compounds
Entry rule: numbers only, all in %.

Use these answered entries as a reference point.
Compound | viability [%]
COc1ccccc1-c1nnc2sc(-c3ccc(N(C)C)cc3)nn12 | 23.9
COc1cccc(C2C(C(=O)c3cc4ccccc4o3)=C(O)C(=O)N2CCN(C)C)c1OC (stereo not drawn) | 100
O=C(CSc1nnnn1-c1ccc2c(c1)OCO2)NCc1cccs1 | 86.8
CN1CCCN(C(=O)c2cc(=O)[nH]c3ccccc23)c2nc3ccccc3nc21 | 79.9
O=C(CSc1nnc(-c2ccccc2F)o1)OCc1ccccc1 | 102
O=C(Nc1cccc(O)c1)c1ccccc1 | 95.2
CC(C)(C)OC(=O)N1CC(O)CC1C(=O)OCC(=O)c1ccc(Cl)cc1 (stereo not drawn) | 84
COC(=O)c1cc(O)c(OCc2ccccc2)c(O)c1 | 94.3
O=C(NCCCCNC(=O)c1c(F)c(F)c(F)c(F)c1F)c1c(F)c(F)c(F)c(F)c1F | 89.4
CCCS(=O)(=O)N1CCCC(C(=O)N2CCC(Cc3ccccc3)CC2)C1 (stereo not drawn) | 98.7

Please examine the following record next.
For this compound ( Cc1cccc(N=C2NC(=O)CS2)c1C ), measured viability is 91.9

---

# viability per entry
Experiment summary: HUVEC growth inhibition – cell-based, human, primary screen (AID 575);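 further: 100% = median of untreated cell wells with 0.1% DMSO on each plate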
Test context: HUVEC proliferation, CellTiter-Glo luminescence, 72 h; at 10 µM; stronger effect = lower value
The source made the active and inactive calls.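 Rule for the calls: active = viability at or below 30% in both replicate assays; inconclusive = viability at or below 30% in just one of the two assays; inactive = the rest.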

Compound | viability
CCn1c(=O)cc(SCC(=O)NCC2CCCO2)c2ccccc21 (stereo not given) | 88.7% (inactive)
Cc1ccccc1-c1nc(CN2CCC(C(=O)NCCCN3CCOCC3)CC2)c(C)o1 | 74% (inactive)
C#CCN1C(=O)C(O)(CC(=O)c2cccc(OC)c2)c2ccccc21 (stereo not given) | 93.3% (inactive)
CCCn1c(N2CCN(CC(=O)Nc3ccc4c(c3)OCCO4)CC2)nc2ccccc21 | 87.4% (inactive)
CC(=O)Nc1ccccc1OCc1nnc(-c2cccs2)o1 | 82.1% (inactive)

The compound listed as CCOC(=O)c1c(C)[nH]c(C)c1C(=O)COc1ccc(NC(=O)c2ccco2)cc1 has a reported viability of 91.8% (inactive)

Form field viability, entry O=C(C1CC1)N1CCc2cc(S(=O)(=O)N(CCO)Cc3ccccc3)ccc21 : 77% (inactive)

For this compound ( CC1(c2ccc(Cl)cc2)NC(=O)N(CC(=O)NC(=O)NCc2ccco2)C1=O (stereo not given) ), measured viability is 61.5% (inactive)

So for O=c1c(F)cn(C2CCCO2)c(=O)n1Cc1c(F)cccc1Cl (stereo not given) , the logged viability turned out to be 92.8% (inactive)

Reported viability of COc1cc(C2c3c(n[nH]c3C)C(=O)N2c2ccc(Br)cc2)ccc1O (stereo not given) : 73.9% (inactive)

---

Experiment summary: growth suppression of yeast trafficking mutant, preliminary HTS, modulators of trafficking downstream of Golgi apparatus project, 1536-format plate, OD 615 nm (AID 637)
Test context: yeast transport mutant growth, absorbance 615 nm, 18 h; stronger effect = higher value
Overview of reported inhibition across a group of compounds:
A number alone suffices; assume %.

Compound | inhibition (%)
Cc1cc2c(=O)n(CC(=O)N3CCN(c4ccccc4)CC3)cnc2s1 | 0.18
CCN(Cc1nc2ccccc2c(=O)[nH]1)Cc1cc(=O)oc2cc(C)c(C)cc12 | -1.67
CC(C)CC(=O)Nc1ccccc1-c1nnn(CC(=O)N2CCOCC2)n1 | -1.77
CCOC(=O)C(NCc1ccccc1OC)(NC(C)=O)C(F)(F)F (stereo not drawn) | -0.63
CCn1c(=O)c(C(=O)NCc2ccc(OC)cc2)c(O)c2ccccc21 | -8.5

GET /value?item= CCCCN(c1ccccc1)S(=O)(=O)c1ccc2c(c1)CCN2C(=O)CCC(=O)O &field=inhibition returns -6.73

inhibition measured on COc1cccc(-c2cc(C(=O)NCc3ccc(Cl)cc3)no2)c1 = 0.82

Sample O=S(=O)(NCCc1csc(-c2ccccc2)n1)c1ccc2c(c1)OCCO2 ; inhibition observed: 4.59

The compound identified as O=C(CCn1nc(-c2ccc(Cl)cc2)ccc1=O)N1CCN(c2ccccn2)CC1 registered its inhibition at -3.87

So for COc1ccc(OC)c(S(=O)(=O)Nc2ccccc2C(=O)O)c1 , the logged inhibition turned out to be 0.16

In plain terms, O=C(Nc1ccccc1N1CCOCC1)c1ccc2ccccc2n1 has a documented inhibition of -2

Given item CN1C(=S)SC(C)(NO)C1(C)C (stereo not drawn) , the value recorded as its inhibition is -9.52

Entry Cc1cc(C(=O)O)ccc1-n1c(C)ccc1C — recorded inhibition = -4.52
